Data credit: paper PMC9611758

assay-comment: Lipophilicity by HPLC (log kw)
Format: physicochemical
details: chromatographic lipophilicity index, extrapolated to 100% d.i.H2O
Method: For lipophilicity measurements, HPLC was utilised instead of the traditional shake-flask method, as described previously. Recent studies have also reported the efficiency of HPLC in measuring the lipophilicity of compounds [79, 80]. Each complex was eluted under several isocratic ratios. […] For lipophilicity measurements, analytical HPLC was utilised. […] Retention times (TR) were measured at varying isocratic ratios ranging from 30 to 36% of solvent B at 1 mL·min^−1 mL. […]
recorded-endpoint: log kw

• Cc1c(C)c2c3c4c1=CC=C[N]4[Pt+2]([OH])([O]C(=O)Cc1ccc(I)cc1)[N]3C=CC=2.N[C@H]1CCCC[C@@H]1N [Complex 8] = 1.19
• N[C@H]1CCCC[C@@H]1N.O=C(Cc1ccc(Cl)cc1)[O][Pt+2]1([OH])[N]2C=CC=c3ccc4c(c32)[N]1C=CC=4 [Complex 1, [Pt^IV(phen)(SS-DACH)(4-CPA)(OH)]^2+] = 0.75
• Cc1c(C)c2c3c4c1=CC=C[N]4[Pt+2]([OH])([O]C(=O)Cc1ccc(F)cc1)[N]3C=CC=2.N[C@H]1CCCC[C@@H]1N [Complex 4] = 0.80
• Cc1c(C)c2c3c4c1=CC=C[N]4[Pt+2]([OH])([O]C(=O)Cc1ccc(Br)cc1)[N]3C=CC=2.N[C@H]1CCCC[C@@H]1N [Complex 6] = 1.07
• N[C@H]1CCCC[C@@H]1N.O=C(Cc1ccc(I)cc1)[O][Pt+2]1([OH])[N]2C=CC=c3ccc4c(c32)[N]1C=CC=4 [Complex 7, [Pt^IV(phen)(SS-DACH)(4-IPA)(OH)]^2+] = 0.90
• N[C@H]1CCCC[C@@H]1N.O=C([O-])Cc1ccc(F)cc1.[OH-].[Pt+4].c1cnc2c(c1)ccc1cccnc12 [Complex 3, [Pt^IV(phen)(SS-DACH)(4-FPA)(OH)]^2+] = 0.25
• N[C@H]1CCCC[C@@H]1N.O=C([O-])Cc1ccc(Br)cc1.[OH-].[Pt+4].c1cnc2c(c1)ccc1cccnc12 [Complex 5, [Pt^IV(phen)(SS-DACH)(4-BPA)(OH)]^2+] = 0.87
